# Measured on: alemtuzumab
# Protocol: Antibody-peptide binding kinetics, SkiPro interferometer, whole mAb
# Experimental parameters: whole molecule alemtuzumab
Endpoint name: pKd
Numbers only, as −log10 of the molar value.

Challenge: Name the recorded pKd for ACGSLSPSSC [Cp-1] .
Response given: 6.79

---

# Measured on: Fab fragments of alemtuzumab
# Protocol: Antibody-peptide binding kinetics, SkiPro interferometer, Fab fragments
Endpoint name: Kd (nM)
One number for each entry, in nM.

Challenge: GET /values?readout=Kd&system=Fab fragments of alemtuzumab&item= ACGSLSPSSC [Cp-1]
Response given: 2050

# credit: patent US10359432B2
